Reference source for all entries: patent US7524836B2

- Tested on: rats treated or not treated with L-NAME
- Set-up: species or system rat (Long Evans)
- Test Settings: rat, in vivo, ip, 100 mg/kg
Measured GPT var. % of individual entries
Readout Kind: GPT var. % (%)

| Molecule | Output Unit | Val |
| --- | --- | --- |
| COc1cc(/C=C/C(=O)OCCCCO[N+](=O)[O-])ccc1OC(=O)CC[C@@H](C)[C@H]1CCC2C3C(CC[C@@]21C)[C@@]1(C)CC[C@@H](O)C[C@H]1C[C@H]3O (stereo partly shown) | % | 105 |
| C[C@H](CCC(=O)O)[C@H]1CC[C@H]2[C@@H]3[C@@H](O)C[C@@H]4C[C@H](O)CC[C@]4(C)[C@H]3CC[C@]12C | % | 130 |
| COc1cc(/C=C/C(=O)OCCCCO[N+](=O)[O-])ccc1OC(=O)CC[C@@H](C)[C@H]1CCC2C3C(CC[C@@]21C)[C@@]1(C)CC[C@@H](O)C[C@H]1C[C@@H]3O (stereo partly shown) | % | 103 |
| C[C@H](CCC(=O)O)[C@H]1CC[C@H]2[C@@H]3[C@H](O)C[C@@H]4C[C@H](O)CC[C@]4(C)[C@H]3CC[C@]12C | % | 150 |

###

- System: rats treated or not treated with L-NAME
- Test Settings: rat, in vivo, ip, 10 mg/kg
Readout Kind: Blood pressure variation % (%)

| Molecule | Output Unit | Val |
| --- | --- | --- |
| C[C@]12CCC(=O)C=C1CC[C@@H]1[C@@H]2[C@@H](O)C[C@@]2(C)[C@H]1CC[C@]2(O)C(=O)CO [hydrocortisone] | % | 115 |
| CC(=O)N[C@@H](CSC(=O)CCCO[N+](=O)[O-])C(=O)OCC(=O)[C@@]1(O)CC[C@H]2[C@@H]3CCC4=CC(=O)C=C[C@]4(C)[C@H]3[C@@H](O)C[C@@]21C [Example 3] | % | 102 |
| C[C@]12C=CC(=O)C=C1CC[C@@H]1[C@@H]2[C@@H](O)C[C@@]2(C)[C@H]1CC[C@]2(O)C(=O)CO [prednisolone] | % | 119 |
| CC(=O)N[C@@H](CSC(=O)CCCO[N+](=O)[O-])C(=O)OCC(=O)[C@@]1(O)CC[C@H]2[C@@H]3CCC4=CC(=O)CC[C@]4(C)[C@H]3[C@@H](O)C[C@@]21C [Example 4] | % | 98 |
